systemName: UniProt P16234
Sequence (P16234 24-1089): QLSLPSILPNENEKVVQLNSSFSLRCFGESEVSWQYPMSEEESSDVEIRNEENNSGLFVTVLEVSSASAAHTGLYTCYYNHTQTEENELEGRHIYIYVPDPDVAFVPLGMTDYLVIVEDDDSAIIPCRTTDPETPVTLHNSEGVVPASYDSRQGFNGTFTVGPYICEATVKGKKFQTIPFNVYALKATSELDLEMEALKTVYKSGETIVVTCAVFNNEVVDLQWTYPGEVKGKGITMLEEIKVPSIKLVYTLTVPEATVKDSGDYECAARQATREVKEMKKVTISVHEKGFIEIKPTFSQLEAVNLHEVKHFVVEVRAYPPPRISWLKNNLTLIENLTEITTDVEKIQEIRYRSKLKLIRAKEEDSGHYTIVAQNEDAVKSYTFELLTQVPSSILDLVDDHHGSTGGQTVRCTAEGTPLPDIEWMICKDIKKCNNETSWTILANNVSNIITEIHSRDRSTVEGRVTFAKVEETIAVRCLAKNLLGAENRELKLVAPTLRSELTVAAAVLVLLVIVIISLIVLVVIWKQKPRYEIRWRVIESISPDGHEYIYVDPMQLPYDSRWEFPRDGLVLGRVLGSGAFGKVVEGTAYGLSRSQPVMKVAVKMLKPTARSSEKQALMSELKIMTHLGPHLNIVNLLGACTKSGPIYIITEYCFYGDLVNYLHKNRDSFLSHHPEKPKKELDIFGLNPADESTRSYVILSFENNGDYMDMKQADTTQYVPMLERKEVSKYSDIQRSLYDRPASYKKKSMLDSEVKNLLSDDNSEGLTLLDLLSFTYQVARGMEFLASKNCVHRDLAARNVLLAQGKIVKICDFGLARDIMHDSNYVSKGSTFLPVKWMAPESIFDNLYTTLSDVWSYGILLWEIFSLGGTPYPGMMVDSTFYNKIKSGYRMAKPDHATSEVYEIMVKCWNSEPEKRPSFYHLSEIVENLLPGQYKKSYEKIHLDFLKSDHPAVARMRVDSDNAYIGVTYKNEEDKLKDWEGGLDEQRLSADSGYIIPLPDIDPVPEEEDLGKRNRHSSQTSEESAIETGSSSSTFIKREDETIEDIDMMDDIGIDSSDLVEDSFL
pIC50: −log10 of the molar value.
readoutLabel: pIC50

Request the reported pIC50 associated with CC1=C(CC(=O)/C=C/c2cccc(CO)c2)C(=O)C=C2C1=CC=C1[C@@]2(C)CC[C@@]2(C)C3C[C@](C)(C(=O)CCc4nc(C(O)C(O)O)c(C)nc4C)CC[C@]3(C)CC[C@]12C (stereo partly shown) < 4.52

====

systemName: JAK2 (Homo sapiens)
Sequence (O60674 whole entry): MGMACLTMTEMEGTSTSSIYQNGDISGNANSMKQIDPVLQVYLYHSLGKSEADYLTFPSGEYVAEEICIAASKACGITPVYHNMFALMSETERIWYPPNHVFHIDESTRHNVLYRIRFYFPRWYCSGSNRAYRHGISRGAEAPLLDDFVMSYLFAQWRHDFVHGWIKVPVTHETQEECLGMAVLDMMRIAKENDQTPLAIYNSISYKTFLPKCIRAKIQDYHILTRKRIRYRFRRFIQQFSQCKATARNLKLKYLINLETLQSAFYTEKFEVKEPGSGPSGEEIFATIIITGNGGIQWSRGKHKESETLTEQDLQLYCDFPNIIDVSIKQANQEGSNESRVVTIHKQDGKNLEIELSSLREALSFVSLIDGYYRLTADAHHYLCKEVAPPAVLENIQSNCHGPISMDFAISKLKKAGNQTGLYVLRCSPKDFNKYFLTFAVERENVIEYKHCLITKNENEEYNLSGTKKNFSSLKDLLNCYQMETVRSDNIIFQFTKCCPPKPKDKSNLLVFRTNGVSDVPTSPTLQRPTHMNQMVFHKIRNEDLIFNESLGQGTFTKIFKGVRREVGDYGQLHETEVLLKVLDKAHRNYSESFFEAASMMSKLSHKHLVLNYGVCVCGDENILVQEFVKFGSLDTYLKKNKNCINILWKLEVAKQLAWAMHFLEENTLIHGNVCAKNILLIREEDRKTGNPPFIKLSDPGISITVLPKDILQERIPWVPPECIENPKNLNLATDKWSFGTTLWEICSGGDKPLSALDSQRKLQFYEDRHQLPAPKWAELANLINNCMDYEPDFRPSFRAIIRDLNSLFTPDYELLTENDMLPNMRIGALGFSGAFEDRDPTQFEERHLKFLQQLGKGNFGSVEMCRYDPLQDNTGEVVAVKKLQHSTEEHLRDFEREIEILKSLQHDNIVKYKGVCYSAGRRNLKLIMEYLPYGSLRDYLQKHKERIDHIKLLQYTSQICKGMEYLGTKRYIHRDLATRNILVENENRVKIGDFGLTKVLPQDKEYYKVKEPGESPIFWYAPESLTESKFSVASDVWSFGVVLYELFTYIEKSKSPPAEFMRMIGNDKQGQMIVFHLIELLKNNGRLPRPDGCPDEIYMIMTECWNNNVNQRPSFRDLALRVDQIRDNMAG
readoutLabel: IC50

Request the reported IC50 associated with CC1=C(CC(=O)/C=C/c2cccc(CO)c2)C(=O)C=C2C1=CC=C1[C@@]2(C)CC[C@@]2(C)C3C[C@](C)(C(=O)CCc4nc(C(O)C(O)O)c(C)nc4C)CC[C@]3(C)CC[C@]12C (stereo partly shown) > 30 µM

====

Test system: HEK293 (embryonic kidney cells)
protocolSummary: MTT assay
Format: cell-based
measurementParameters: Homo sapiens, HEK293, 72 h, read-out: IC50 (μM) HEK293
readoutLabel: IC50 (µM)
Answer with a number only, understood to be in µM.

Request the reported IC50 associated with CC1=C(O)C(=O)C=C2C1=CC=C1[C@@]2(C)CC[C@@]2(C)[C@@H]3C[C@](C)(C(=O)O)CC[C@]3(C)CC[C@]12C 5.76

====

systemName: MET (Homo sapiens)
readoutLabel: IC50

Request the reported IC50 associated with CC1=C(CC(=O)/C=C/c2cccc(CO)c2)C(=O)C=C2C1=CC=C1[C@@]2(C)CC[C@@]2(C)C3C[C@](C)(C(=O)CCc4nc(C(O)C(O)O)c(C)nc4C)CC[C@]3(C)CC[C@]12C (stereo partly shown) > 30 µM

====

systemName: PTK6 (Homo sapiens)
Construct: assay run by ICE Biosciences (Beijing, China)
Sequence (Q13882 whole entry): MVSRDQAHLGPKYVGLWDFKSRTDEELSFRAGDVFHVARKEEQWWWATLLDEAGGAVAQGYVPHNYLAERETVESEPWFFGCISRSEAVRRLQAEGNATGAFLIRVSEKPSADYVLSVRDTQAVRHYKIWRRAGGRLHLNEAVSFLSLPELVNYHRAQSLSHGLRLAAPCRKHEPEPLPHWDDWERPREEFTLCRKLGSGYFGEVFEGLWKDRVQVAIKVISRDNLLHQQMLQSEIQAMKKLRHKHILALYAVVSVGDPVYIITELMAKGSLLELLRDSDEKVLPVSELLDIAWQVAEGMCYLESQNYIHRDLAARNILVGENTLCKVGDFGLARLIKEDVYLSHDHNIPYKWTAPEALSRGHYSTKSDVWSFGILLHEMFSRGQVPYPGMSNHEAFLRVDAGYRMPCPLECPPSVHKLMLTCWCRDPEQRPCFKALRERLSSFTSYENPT
protocolSummary: Kinase selectivity assay
Assay type: biochemical
measurementParameters: target PTK6; read-out: CP1 IC50
readoutLabel: IC50

Request the reported IC50 associated with CC1=C(CC(=O)/C=C/c2cccc(CO)c2)C(=O)C=C2C1=CC=C1[C@@]2(C)CC[C@@]2(C)C3C[C@](C)(C(=O)CCc4nc(C(O)C(O)O)c(C)nc4C)CC[C@]3(C)CC[C@]12C (stereo partly shown) [CP1] > 30 µM

====

systemName: FLT4 (Homo sapiens)
readoutLabel: IC50

FLT4 (Homo sapiens) / IC50 / CC1=C(CC(=O)/C=C/c2cccc(CO)c2)C(=O)C=C2C1=CC=C1[C@@]2(C)CC[C@@]2(C)C3C[C@](C)(C(=O)CCc4nc(C(O)C(O)O)c(C)nc4C)CC[C@]3(C)CC[C@]12C (stereo partly shown) [CP1] : value? > 30 µM

====

systemName: TNK2 (Homo sapiens)
Sequence (Q07912 whole entry): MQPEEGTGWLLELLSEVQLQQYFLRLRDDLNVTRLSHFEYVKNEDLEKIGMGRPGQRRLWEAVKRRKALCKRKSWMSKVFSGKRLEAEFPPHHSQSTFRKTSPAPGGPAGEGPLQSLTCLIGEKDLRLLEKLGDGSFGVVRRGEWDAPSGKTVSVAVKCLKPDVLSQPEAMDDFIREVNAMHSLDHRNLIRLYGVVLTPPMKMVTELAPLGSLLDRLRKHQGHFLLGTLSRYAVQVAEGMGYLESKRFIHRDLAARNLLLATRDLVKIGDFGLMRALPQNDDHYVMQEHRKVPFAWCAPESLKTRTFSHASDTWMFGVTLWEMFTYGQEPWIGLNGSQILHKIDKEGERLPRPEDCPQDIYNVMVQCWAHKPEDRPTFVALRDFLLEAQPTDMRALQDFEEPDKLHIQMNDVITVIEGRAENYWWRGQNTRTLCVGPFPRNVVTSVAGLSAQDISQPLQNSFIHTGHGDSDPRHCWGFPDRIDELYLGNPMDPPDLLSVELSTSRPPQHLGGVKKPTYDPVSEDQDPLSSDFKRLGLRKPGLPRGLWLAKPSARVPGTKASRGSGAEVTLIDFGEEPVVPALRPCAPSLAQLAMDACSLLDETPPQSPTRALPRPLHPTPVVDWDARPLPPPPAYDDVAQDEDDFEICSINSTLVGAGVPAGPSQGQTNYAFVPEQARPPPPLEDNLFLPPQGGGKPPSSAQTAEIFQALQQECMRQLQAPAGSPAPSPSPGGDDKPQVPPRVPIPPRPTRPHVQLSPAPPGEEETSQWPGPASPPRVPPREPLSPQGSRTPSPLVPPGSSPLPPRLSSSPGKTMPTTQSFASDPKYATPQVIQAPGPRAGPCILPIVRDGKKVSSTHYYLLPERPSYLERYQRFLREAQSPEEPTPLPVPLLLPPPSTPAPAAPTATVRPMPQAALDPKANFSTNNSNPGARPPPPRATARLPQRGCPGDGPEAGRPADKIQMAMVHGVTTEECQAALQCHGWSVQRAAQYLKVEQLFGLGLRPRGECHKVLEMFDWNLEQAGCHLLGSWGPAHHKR
readoutLabel: IC50

Request the reported IC50 associated with CC1=C(CC(=O)/C=C/c2cccc(CO)c2)C(=O)C=C2C1=CC=C1[C@@]2(C)CC[C@@]2(C)C3C[C@](C)(C(=O)CCc4nc(C(O)C(O)O)c(C)nc4C)CC[C@]3(C)CC[C@]12C (stereo partly shown) [CP1] > 30 µM

====

systemName: HCK (Homo sapiens, UniProt P08631)
Sequence (P08631 whole entry): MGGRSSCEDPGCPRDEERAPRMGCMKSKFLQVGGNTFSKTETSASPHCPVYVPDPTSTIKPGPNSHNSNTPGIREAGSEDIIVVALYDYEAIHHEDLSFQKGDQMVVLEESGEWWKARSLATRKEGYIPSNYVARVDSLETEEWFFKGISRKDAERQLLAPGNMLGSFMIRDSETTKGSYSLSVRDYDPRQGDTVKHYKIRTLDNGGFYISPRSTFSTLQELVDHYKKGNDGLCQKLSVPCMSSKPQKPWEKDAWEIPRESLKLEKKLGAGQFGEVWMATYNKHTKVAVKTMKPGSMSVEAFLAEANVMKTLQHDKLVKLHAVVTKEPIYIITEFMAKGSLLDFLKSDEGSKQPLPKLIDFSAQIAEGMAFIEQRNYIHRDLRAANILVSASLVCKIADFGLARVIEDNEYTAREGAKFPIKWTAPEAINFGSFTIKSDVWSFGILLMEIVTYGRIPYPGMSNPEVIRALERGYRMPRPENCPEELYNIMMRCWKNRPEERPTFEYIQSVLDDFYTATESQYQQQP
pIC50: −log10 of the molar value.
readoutLabel: pIC50

Request the reported pIC50 associated with CC1=C(CC(=O)/C=C/c2cccc(CO)c2)C(=O)C=C2C1=CC=C1[C@@]2(C)CC[C@@]2(C)C3C[C@](C)(C(=O)CCc4nc(C(O)C(O)O)c(C)nc4C)CC[C@]3(C)CC[C@]12C (stereo partly shown) < 4.52
